molecular target: Acetylcholinesterase (Homo sapiens)

cpd-smiles | measurement-units | MIC
C[C@H]1[C@@H]2[C@@H]3[C@@H]4C[C@@]1(O)OC(=O)[C@@]24CCCC3(C)C | µg | 0.6
C[C@@H]1C(=O)C[C@H]2[C@H]3[C@@H]1C2(C)CCCC3(C)C | µg | 4
CC(=O)OC[C@]12CCCC(C)(C)[C@@H]3[C@H]1[C@@]1(CO1)C(=O)C[C@@H]32 | µg | 4
C=C1[C@@H](O)[C@H](O)[C@H]2[C@H]3[C@@H]1C2(C)CCCC3(C)C | µg | 4

----------
MIC values recorded for Acetylcholinesterase (Homo sapiens)

cpd-smiles | measurement-units | MIC
C[C@H]1[C@@H]2[C@@H]3[C@@H]4C[C@@]1(O)OC[C@@]24CCCC3(C)C | µg | 0.8
CC(=O)OC[C@]12CCCC(C)(C)[C@@H]3[C@H]1[C@]1(CO1)C(=O)C[C@@H]32 | µg | 4
C=C1[C@H](O)C[C@H]2[C@H]3[C@@H]1C2(COC(C)=O)CCCC3(C)C | µg | 4
C=C1C(=O)C[C@H]2[C@H]3[C@@H]1C2(COC(C)=O)CCCC3(C)C | µg | 4
C=C1OC(=O)C[C@H]2[C@H]3[C@@H]1[C@]2(COC(C)=O)CCCC3(C)C | µg | 4
